Target system: T1, human interleukin-23 receptor (IL23R) (human, UniProt Q5VWK5 24-355, limits assumed)
T1 construct: also called human IL23R
T1 sequence (looked up): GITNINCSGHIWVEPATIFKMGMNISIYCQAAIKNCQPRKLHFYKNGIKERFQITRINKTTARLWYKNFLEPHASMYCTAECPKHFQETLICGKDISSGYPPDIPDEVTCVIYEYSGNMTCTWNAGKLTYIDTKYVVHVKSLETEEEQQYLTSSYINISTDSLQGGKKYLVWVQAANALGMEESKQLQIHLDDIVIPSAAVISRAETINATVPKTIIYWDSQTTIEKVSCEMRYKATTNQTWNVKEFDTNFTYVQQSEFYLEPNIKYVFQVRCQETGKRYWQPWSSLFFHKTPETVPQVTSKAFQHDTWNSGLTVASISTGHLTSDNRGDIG
Test name: SPR, scFv (summary table)
Property measured: Kd
Please report the result as a number followed by the unit.

Record Vκ2/VH1B consensus λ-capped, human IL23R specific scFv (scFv, scFv VL-linker-VH, made in E. coli; also called Vκ2VH1B capped) scFv: DIVMTQSPLSLPVTPGEPASISCQASENIYSFLAWYLQKPGQSPQLLIYSASKLAAGVPDRFSGSGSGTDFTLKISRVEAEDVGVYYCQQTNRYSNPDIYNVFGGGTKLTVLGGGGGSGGGGSGGGGSGGGGSQVQLVQSGAEVKKPGASVKVSCKASGIDFNSNYYMCWVRQAPGQGLEWMGCIYVGSHVNTYYANWAKGRVTMTRDTSISTAYMELSSLRSEDTAVYYCATSGSSVLYFKFWGQGTLVTVSS . Reported Kd: 0.143 nM

Recorded result, Vκ2/VH1A consensus (uncapped), human IL23R specific scFv (scFv, scFv VL-linker-VH, made in E. coli; Vκ framework IV (uncapped, full consensus); also called Vκ2VH1A uncapped) scFv: DIVMTQSPLSLPVTPGEPASISCQASENIYSFLAWYLQKPGQSPQLLIYSASKLAAGVPDRFSGSGSGTDFTLKISRVEAEDVGVYYCQQTNRYSNPDIYNVFGQGTKVEIKRGGGGSGGGGSGGGGSGGGGSQVQLVQSGAEVKKPGSSVKVSCKASGIDFNSNYYMCWVRQAPGQGLEWMGCIYVGSHVNTYYANWAKGRVTITADESTSTAYMELSSLRSEDTAVYYCATSGSSVLYFKFWGQGTLVTVSS , Kd: 0.222 nM

Kindly note the recorded Kd for Vκ1/VH3 consensus (uncapped), human IL23R specific scFv (scFv, scFv VL-linker-VH, made in E. coli; Vκ framework IV (uncapped, full consensus); also called Vκ1VH3 uncapped) scFv: DIQMTQSPSSLSASVGDRVTITCQASENIYSFLAWYQQKPGKAPKLLIYSASKLAAGVPSRFSGSGSGTDFTLTISSLQPEDFATYYCQQTNRYSNPDIYNVFGQGTKVEIKRGGGGSGGGGSGGGGSGGGGSEVQLVESGGGLVQPGGSLRLSCAASGIDFNSNYYMCWVRQAPGKGLEWVSCIYVGSHVNTYYANWAKGRFTISRDNSKNTLYLQMNSLRAEDTAVYYCATSGSSVLYFKFWGQGTLVTVSS , which is 0.0347 nM

Noted for Vκ1/VH6 consensus (uncapped), human IL23R specific scFv (scFv, scFv VL-linker-VH, made in E. coli; Vκ framework IV (uncapped, full consensus); also called Vκ1VH6 uncapped) scFv: DIQMTQSPSSLSASVGDRVTITCQASENIYSFLAWYQQKPGKAPKLLIYSASKLAAGVPSRFSGSGSGTDFTLTISSLQPEDFATYYCQQTNRYSNPDIYNVFGQGTKVEIKRGGGGSGGGGSGGGGSGGGGSQVQLQQSGPGLVKPSQTLSLTCAISGIDFNSNYYMCWIRQSPGRGLEWLGCIYVGSHVNTYYANWAKGRITINPDTSKNQFSLQLNSVTPEDTAVYYCATSGSSVLYFKFWGQGTLVTVSS : its Kd reads 0.251 nM

Measured Kd, Vκ1/VH5 consensus λ-capped, human IL23R specific scFv (scFv, scFv VL-linker-VH, made in E. coli; also called Vκ1VH5 capped) scFv: DIQMTQSPSSLSASVGDRVTITCQASENIYSFLAWYQQKPGKAPKLLIYSASKLAAGVPSRFSGSGSGTDFTLTISSLQPEDFATYYCQQTNRYSNPDIYNVFGGGTKLTVLGGGGGSGGGGSGGGGSGGGGSEVQLVQSGAEVKKPGESLKISCKGSGIDFNSNYYMCWVRQMPGKGLEWMGCIYVGSHVNTYYANWAKGQVTISADKSISTAYLQWSSLKASDTAMYYCATSGSSVLYFKFWGQGTLVTVSS : 0.398 nM

// Vκ2/VH1A consensus λ-capped, human IL23R specific scFv (scFv, scFv VL-linker-VH, made in E. coli; also called Vκ2VH1A capped) scFv: DIVMTQSPLSLPVTPGEPASISCQASENIYSFLAWYLQKPGQSPQLLIYSASKLAAGVPDRFSGSGSGTDFTLKISRVEAEDVGVYYCQQTNRYSNPDIYNVFGGGTKLTVLGGGGGSGGGGSGGGGSGGGGSQVQLVQSGAEVKKPGSSVKVSCKASGIDFNSNYYMCWVRQAPGQGLEWMGCIYVGSHVNTYYANWAKGRVTITADESTSTAYMELSSLRSEDTAVYYCATSGSSVLYFKFWGQGTLVTVSS : Kd value = 0.0772 nM

Value of measured Kd for the entry Vκ3/VH1B consensus λ-capped, human IL23R specific scFv (scFv, scFv VL-linker-VH, made in E. coli; also called Vκ3VH1B capped) scFv: DIVLTQSPATLSLSPGERATLSCQASENIYSFLAWYQQKPGQAPRLLIYSASKLAAGVPARFSGSGSGTDFTLTISSLEPEDFAVYYCQQTNRYSNPDIYNVFGGGTKLTVLGGGGGSGGGGSGGGGSGGGGSQVQLVQSGAEVKKPGASVKVSCKASGIDFNSNYYMCWVRQAPGQGLEWMGCIYVGSHVNTYYANWAKGRVTMTRDTSISTAYMELSSLRSEDTAVYYCATSGSSVLYFKFWGQGTLVTVSS : 0.181 nM

Value of Kd reported for the binder Vκ3/VH3 consensus λ-capped, human IL23R specific scFv (scFv, scFv VL-linker-VH, made in E. coli; also called Vκ3VH3 capped) scFv: DIVLTQSPATLSLSPGERATLSCQASENIYSFLAWYQQKPGQAPRLLIYSASKLAAGVPARFSGSGSGTDFTLTISSLEPEDFAVYYCQQTNRYSNPDIYNVFGGGTKLTVLGGGGGSGGGGSGGGGSGGGGSEVQLVESGGGLVQPGGSLRLSCAASGIDFNSNYYMCWVRQAPGKGLEWVSCIYVGSHVNTYYANWAKGRFTISRDNSKNTLYLQMNSLRAEDTAVYYCATSGSSVLYFKFWGQGTLVTVSS is 0.022 nM

Form: binder = Vκ3/VH5 consensus (uncapped), human IL23R specific scFv (scFv, scFv VL-linker-VH, made in E. coli; Vκ framework IV (uncapped, full consensus); also called Vκ3VH5 uncapped) scFv: DIVLTQSPATLSLSPGERATLSCQASENIYSFLAWYQQKPGQAPRLLIYSASKLAAGVPARFSGSGSGTDFTLTISSLEPEDFAVYYCQQTNRYSNPDIYNVFGQGTKVEIKRGGGGSGGGGSGGGGSGGGGSEVQLVQSGAEVKKPGESLKISCKGSGIDFNSNYYMCWVRQMPGKGLEWMGCIYVGSHVNTYYANWAKGQVTISADKSISTAYLQWSSLKASDTAMYYCATSGSSVLYFKFWGQGTLVTVSS ; Kd = 0.525 nM

Kd reported for this binder Vκ1/VH1A consensus λ-capped, human IL23R specific scFv (scFv, scFv VL-linker-VH, made in E. coli; also called Vκ1VH1A capped) scFv: DIQMTQSPSSLSASVGDRVTITCQASENIYSFLAWYQQKPGKAPKLLIYSASKLAAGVPSRFSGSGSGTDFTLTISSLQPEDFATYYCQQTNRYSNPDIYNVFGGGTKLTVLGGGGGSGGGGSGGGGSGGGGSQVQLVQSGAEVKKPGSSVKVSCKASGIDFNSNYYMCWVRQAPGQGLEWMGCIYVGSHVNTYYANWAKGRVTITADESTSTAYMELSSLRSEDTAVYYCATSGSSVLYFKFWGQGTLVTVSS : 0.166 nM
